Some molecules, each annotated with its measured Experiment results (relative activation fold) PPARγ.
target: PPARγ (Homo sapiens (Human), UniProt P37231); assay: Nuclear receptor reporter gene (luciferase) screening model, PPARγ activation in HepG2 cells; assay type: cell-based; conditions: 0.1 uM; HepG2; solvent control = 1
Sequence (P37231 whole entry, species assumed): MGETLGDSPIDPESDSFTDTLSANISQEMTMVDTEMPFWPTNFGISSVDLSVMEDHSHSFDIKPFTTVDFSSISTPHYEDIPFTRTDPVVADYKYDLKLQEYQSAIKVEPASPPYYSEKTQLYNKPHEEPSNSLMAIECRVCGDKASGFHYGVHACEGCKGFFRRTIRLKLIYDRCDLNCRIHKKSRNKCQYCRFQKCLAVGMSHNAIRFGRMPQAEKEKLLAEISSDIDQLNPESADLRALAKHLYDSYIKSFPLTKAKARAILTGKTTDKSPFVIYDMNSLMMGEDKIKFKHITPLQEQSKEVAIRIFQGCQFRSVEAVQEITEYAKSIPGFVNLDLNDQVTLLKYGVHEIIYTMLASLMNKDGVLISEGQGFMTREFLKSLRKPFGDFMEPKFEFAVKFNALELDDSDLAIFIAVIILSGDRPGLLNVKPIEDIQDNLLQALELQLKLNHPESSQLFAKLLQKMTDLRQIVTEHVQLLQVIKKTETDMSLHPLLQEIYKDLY
Sequence (P19793 whole entry partner, species assumed): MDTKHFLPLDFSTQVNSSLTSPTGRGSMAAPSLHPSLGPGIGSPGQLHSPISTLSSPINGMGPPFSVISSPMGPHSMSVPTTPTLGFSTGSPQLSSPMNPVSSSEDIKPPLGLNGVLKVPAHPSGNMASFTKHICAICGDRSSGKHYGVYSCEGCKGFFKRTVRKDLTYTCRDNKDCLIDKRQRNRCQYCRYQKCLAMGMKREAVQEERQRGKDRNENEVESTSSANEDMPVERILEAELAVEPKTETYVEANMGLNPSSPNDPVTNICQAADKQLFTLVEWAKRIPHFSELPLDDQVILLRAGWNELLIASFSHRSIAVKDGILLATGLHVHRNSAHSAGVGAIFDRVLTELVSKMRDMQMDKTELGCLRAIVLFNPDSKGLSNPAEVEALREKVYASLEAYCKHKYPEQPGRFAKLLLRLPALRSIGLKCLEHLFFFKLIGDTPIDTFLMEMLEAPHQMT
Parameter measured: Experiment results (relative activation fold) PPARγ

# Molecule, Obs value
rows = [
    ("CCc1cc(OCCc2nc(-c3ccc(F)cc3)oc2C)ccc1CCC(=O)O [Compound 1]", 1.26),
    ("CCc1cc(OCCc2nc(-c3ccc(C#N)cc3)oc2C)ccc1CCC(=O)O [Compound 8]", 3.72),
    ("CCc1cc(OCCc2nc(-c3ccc([N+](=O)[O-])cc3)oc2C)ccc1CCC(=O)O [Compound 7]", 3.30),
    ("CCc1cc(OCCc2nc(-c3ccc(C(F)(F)F)cc3)oc2C)ccc1CCC(=O)O [Compound 3]", 1.32),
    ("CCc1cc(OCCc2nc(-c3ccc(C(C)(C)C)cc3)oc2C)ccc1CCC(=O)O [Compound 4]", 3.81),
    ("CCc1cc(OCCc2coc(-c3ccc(C(F)(F)F)cc3)n2)ccc1CCC(=O)O [Compound 2]", 1.26),
    ("CCc1cc(OCCc2nc(-c3ccc(-c4nnn[nH]4)cc3)oc2C)ccc1CCC(=O)O [Compound 6]", 1.04),
]
